# PROTOCOL_NOTES: Half life in cynomolgus monkey whole blood at 100 uM by LC-MS/MS analysis
# Type: ADME, tissue-based, Macaca fascicularis
Numbered stars: 1 amine (or outer) side, 2 acyl side, 3 side chain; on linkers, the order of the positions; unused ones are H or OH. Bridge positions count the residues as written; N and C are the ends. Square brackets hold non-standard residues; d marks the D form. Peptide text beside a SMILES is read from it. Trp(5-F) = N[C@@H](Cc1c[nH]c2ccc(F)cc12)C(=O)O; X3 = O=C(CCSCc1cc(F)cc(CSCCN[*:1])c1)[*:2]; mXylylene = c1cc(C[*:1])cc(C[*:2])c1; αMeP = C[C@@]1(C(=O)O)CCCN1; Mpa = O=C(O)CCS
compounds and their reported half-life at 100 µM

Look over these answered cases.
INSERT INTO assay_data (compound, data_value) VALUES
  ('C[C@@]12CCCN1C(=O)[C@H](Cc1ccc(O)cc1)NC(=O)[C@H](Cc1cnc[nH]1)NC(=O)[C@H](CC(=O)O)NC(=O)[C@H](Cc1c[nH]c3ccc(F)cc13)NC(=O)[C@H](Cc1c[nH]c3ccc(F)cc13)NC(=O)CNC(=O)[C@H](CCCCN)NC(=O)CCSCc1cccc(c1)CSC[C@@H](C(N)=O)NC2=O ([Mpa]KG[Trp(5-F)][Trp(5-F)]DHY[αMeP]C-NH2; linker 1-10 via mXylylene)', '> 6 h'),
  ('C[C@H]1NC(=O)[C@H](CCCCN)NC(=O)CCSCc2cc(F)cc(c2)CSCCNC(=O)[C@]2(C)CCCN2C(=O)[C@H](Cc2ccc(O)cc2)NC(=O)[C@H](Cc2cnc[nH]2)NC(=O)[C@H](CC(=O)O)NC(=O)[C@H](Cc2c[nH]c3ccc(F)cc23)NC(=O)[C@H](Cc2c[nH]c3ccc(F)cc23)NC1=O (cyclo(DHY[αMeP][X3]K[dA][Trp(5-F)][Trp(5-F)]))', '> 6 h'),
  ('COc1ccc(C[C@@H]2NC(=O)[C@H]([C@@H](C)O)NC(=O)[C@@H]3CCC(=O)NCc4cccc(c4)C[C@H](NC(=O)[C@@H](C)NC(=O)[C@H](C)NC(=O)CCSCc4cccc(c4)CSCCNC(=O)[C@]4(C)CCCN4C2=O)C(=O)N[C@@H](Cc2c[nH]c4ccc(F)cc24)C(=O)N3)cc1', '1.88 h');

Incoming: I have this compound here, COc1ccc(C[C@@H]2NC(=O)[C@H]([C@@H](C)OC)NC(=O)[C@@H]3CCC(=O)NCc4cccc(c4)C[C@H](NC(=O)[C@@H](C)NC(=O)[C@H](C)NC(=O)CCSCc4cccc(c4)CSCCNC(=O)[C@]4(C)CCCN4C2=O)C(=O)N[C@@H](Cc2c[nH]c4ccc(F)cc24)C(=O)N3C)cc1 , and I need its recorded half-life at 100 µM.
Outgoing: > 6 h

----------
# SUBJECT_OF_TEST: PCSK9/LDLR (Homo sapiens)
# Sequence (Q8NBP7 31-152 limits assumed): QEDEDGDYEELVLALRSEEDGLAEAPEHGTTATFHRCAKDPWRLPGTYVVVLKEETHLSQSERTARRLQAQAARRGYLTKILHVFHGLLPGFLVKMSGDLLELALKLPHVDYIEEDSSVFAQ
# Sequence (Q8NBP7 153-692 limits assumed): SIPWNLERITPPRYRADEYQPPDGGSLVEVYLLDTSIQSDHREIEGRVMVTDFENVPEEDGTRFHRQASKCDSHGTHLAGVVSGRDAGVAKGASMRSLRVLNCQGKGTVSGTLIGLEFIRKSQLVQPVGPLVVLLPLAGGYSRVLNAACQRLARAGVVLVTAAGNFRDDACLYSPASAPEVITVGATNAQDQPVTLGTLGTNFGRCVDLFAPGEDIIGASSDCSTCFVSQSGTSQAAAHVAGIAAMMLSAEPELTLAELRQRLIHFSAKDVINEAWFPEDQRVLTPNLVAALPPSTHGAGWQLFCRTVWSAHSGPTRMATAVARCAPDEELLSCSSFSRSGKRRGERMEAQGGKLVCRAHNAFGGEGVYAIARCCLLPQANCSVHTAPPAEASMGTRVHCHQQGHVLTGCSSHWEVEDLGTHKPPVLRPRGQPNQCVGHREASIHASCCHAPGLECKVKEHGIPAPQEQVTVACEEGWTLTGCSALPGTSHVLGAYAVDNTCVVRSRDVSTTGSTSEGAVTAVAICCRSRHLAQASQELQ
# Sequence (P01130 22-860 partner limits assumed): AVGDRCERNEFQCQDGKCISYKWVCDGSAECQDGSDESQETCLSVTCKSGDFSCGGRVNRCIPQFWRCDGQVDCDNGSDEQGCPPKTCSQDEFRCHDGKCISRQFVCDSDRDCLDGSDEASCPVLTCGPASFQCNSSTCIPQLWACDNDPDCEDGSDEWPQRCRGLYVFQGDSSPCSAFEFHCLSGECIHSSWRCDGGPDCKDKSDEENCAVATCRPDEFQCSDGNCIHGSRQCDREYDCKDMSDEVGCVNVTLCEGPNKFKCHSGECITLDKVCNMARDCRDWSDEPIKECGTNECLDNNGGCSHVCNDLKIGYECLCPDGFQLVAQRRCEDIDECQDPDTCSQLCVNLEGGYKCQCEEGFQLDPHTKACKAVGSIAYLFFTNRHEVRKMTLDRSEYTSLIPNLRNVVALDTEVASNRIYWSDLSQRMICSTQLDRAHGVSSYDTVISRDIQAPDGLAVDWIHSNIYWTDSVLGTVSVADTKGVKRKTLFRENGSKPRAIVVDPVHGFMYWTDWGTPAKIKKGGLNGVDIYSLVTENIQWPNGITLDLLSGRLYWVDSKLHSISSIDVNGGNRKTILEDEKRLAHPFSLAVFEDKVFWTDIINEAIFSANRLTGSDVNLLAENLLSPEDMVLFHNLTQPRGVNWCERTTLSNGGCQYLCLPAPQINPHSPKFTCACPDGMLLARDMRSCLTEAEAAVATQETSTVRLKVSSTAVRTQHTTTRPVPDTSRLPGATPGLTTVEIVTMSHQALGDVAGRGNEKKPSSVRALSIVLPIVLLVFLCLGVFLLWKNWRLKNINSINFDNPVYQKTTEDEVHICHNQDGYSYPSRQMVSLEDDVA
# PROTOCOL_NOTES: Inhibition of avi-tagged-biotinylated human PCSK9 interaction with His-tagged human LDLR EGFa domain by LANCE Ulight Streptavidin based TR-FRET assay
pKi: −log10 of the molar value. Numbered stars: 1 amine (or outer) side, 2 acyl side, 3 side chain; on linkers, the order of the positions; unused ones are H or OH. Bridge positions count the residues as written; N and C are the ends. Square brackets hold non-standard residues; d marks the D form. Peptide text beside a SMILES is read from it. ξ: configuration not given here. Trp(5-F) = N[C@@H](Cc1c[nH]c2ccc(F)cc12)C(=O)O; Trp(7-aza) = N[C@@H](Cc1c[nH]c2ncccc12)C(=O)O; NMeW = CN[C@@H](Cc1c[nH]c2ccccc12)C(=O)O; mXylylene = c1cc(C[*:1])cc(C[*:2])c1; Tle = CC(C)(C)[C@H](N)C(=O)O; Nva = CCC[C@H](N)C(=O)O; ξNle = CCCCC(N)C(=O)O; Mpa = O=C(O)CCS
ENDPOINT_LABEL: pKi

INSERT INTO assay_data (compound, endpoint_label, data_value) VALUES
  ('CCCCC(NC(C)=O)C(=O)N[C@H]1CSCc2cccc(c2)CSC[C@@H](C(N)=O)NC(=O)[C@H]([C@@H](C)O)NC(=O)[C@H](CCC)NC(=O)[C@H](Cc2ccc(O)cc2)NC(=O)[C@H](CCC(=O)O)NC(=O)[C@H](CCC)NC(=O)[C@H](Cc2c[nH]c3ncccc23)NC(=O)[C@H]([C@@H](C)O)NC(=O)[C@H](Cc2cnc[nH]2)NC(=O)[C@H](Cc2ccc(O)cc2)NC(=O)[C@H](C(C)(C)C)NC1=O (stereo partly drawn) (Ac-[ξNle]C[Tle]YHT[Trp(7-aza)][Nva]EY[Nva]TC-NH2; linker 2-13 via mXylylene)', 'pKi', 6.87),
  ('CN1C(=O)[C@H](Cc2c[nH]c3ccc(F)cc23)NC(=O)CNC(=O)[C@H](CCCCN)NC(=O)CCSCc2cccc(c2)CSC[C@@H](C(N)=O)NC(=O)[C@@H]2CCCN2C(=O)[C@H](Cc2ccc(O)cc2)NC(=O)[C@H](Cc2cnc[nH]2)NC(=O)[C@H](CC(=O)O)NC(=O)[C@@H]1Cc1c[nH]c2ccccc12 ([Mpa]KG[Trp(5-F)][NMeW]DHYPC-NH2; linker 1-10 via mXylylene)', 'pKi', '< 4.32');

Incoming: I have this compound here, NCCCC[C@@H]1NC(=O)CCSCc2cccc(c2)CSC[C@@H](C(N)=O)NC(=O)[C@@H]2CCCN2C(=O)[C@H](Cc2ccc(O)cc2)NC(=O)[C@@H](Cc2cnc[nH]2)NC(=O)[C@H](CC(=O)O)NC(=O)[C@H](Cc2c[nH]c3ccc(F)cc23)NC(=O)[C@H](Cc2c[nH]c3ccc(F)cc23)NC(=O)CNC1=O , and I need its recorded pKi.
Outgoing: < 4.32
